- SUBJECT_OF_TEST: Avi-KRAS G12R (1-169) GppNHp/RAF1 RBD-3xFLAG (52-151) (Homo sapiens, UniProt P01116, G12R)
- Construct: Avi-KRAS G12R (1-169)
- Sequence (P01116 1-169 isoform P01116-2 G12R): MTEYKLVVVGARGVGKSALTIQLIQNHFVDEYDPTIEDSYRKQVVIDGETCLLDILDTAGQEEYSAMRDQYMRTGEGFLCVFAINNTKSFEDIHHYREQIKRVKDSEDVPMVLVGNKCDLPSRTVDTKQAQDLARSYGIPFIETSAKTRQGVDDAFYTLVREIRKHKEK
- PROCEDURE_SUMMARY: Raf1-KRAS G12R-GppNHP disruption HTRF assay (Biological Example 1)
- Type: binding
- EXPERIMENTAL_CONTEXT: KRAS G12R, GppNHp-loaded; class symbols
PARAMETER: IC50

Please supply the value of reported IC50 for the item C[C@H]1Cn2nc(C(=O)N(C)C)cc2CN1c1nc(OC[C@@]23CCCN2C[C@H](F)C3)nc2c(F)c(-c3ccc(F)c4sc(N)c(C#N)c34)c(C(F)(F)F)cc12 (atropisomer, axis not shown)
0.1 to 1 µM

Please supply the value of reported IC50 for the item CN(C)C(=O)N1CC[C@H](N(C)c2nc(OC[C@@]34CCCN3C[C@H](F)C4)nc3c(F)c(-c4ccc(F)c5sc(N)c(C#N)c45)c(C(F)(F)F)cc23)C1 (atropisomer, axis not shown)
< 0.1 µM

Please supply the value of reported IC50 for the item CC(=O)N1CC[C@H](N(c2nc(OC[C@@]34CCCN3C[C@H](F)C4)nc3c(F)c(-c4ccc(F)c5sc(N)c(C#N)c45)c(C(F)(F)F)cc23)C2CC2)C1 (atropisomer, axis not shown)
0.1 to 1 µM

Please supply the value of reported IC50 for the item CCN(c1nc(OC[C@@]23CCCN2C[C@H](F)C3)nc2c(F)c(-c3ccc(F)c4sc(N)c(C#N)c34)c(C(F)(F)F)cc12)[C@H]1CCN(C(=O)OC2CCN(C(C)=O)CC2)C1 (atropisomer, axis not shown)
< 0.1 µM

---

Please provide measured IC50 for the entries that follow.
- SUBJECT_OF_TEST: Avi-KRAS WT (1-169) GppNHp/RAF1 RBD-3xFLAG (52-151) (Homo sapiens, UniProt P01116)
- Construct: Avi-KRAS WT (1-169)
- Sequence (P01116 1-169 isoform P01116-2): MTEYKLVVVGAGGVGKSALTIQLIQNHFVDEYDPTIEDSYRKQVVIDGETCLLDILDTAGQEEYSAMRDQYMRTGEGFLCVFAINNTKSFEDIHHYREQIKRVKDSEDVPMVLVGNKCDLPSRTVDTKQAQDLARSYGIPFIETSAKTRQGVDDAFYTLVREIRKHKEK
- PROCEDURE_SUMMARY: Raf1-KRAS WT-GppNHP disruption HTRF assay (Biological Example 1)
- Assay type: binding
- EXPERIMENTAL_CONTEXT: KRAS WT-GppNHp/RAF1 RBD HTRF

Please supply the value of reported IC50 for the item CC[C@@H]1[C@H](N(C)c2nc(OC[C@@]34CCCN3C[C@H](F)C4)nc3c(F)c(-c4ccc(F)c5sc(N)c(C#N)c45)c(C(F)(F)F)cc23)CCN1C(=O)C1CC1 [Compound 434]
0.1 to 1 µM

Please supply the value of reported IC50 for the item N#Cc1c(N)sc2c(F)ccc(-c3c(C(F)(F)F)cc4c(N5CCn6nc(C(=O)N7CC(O)C7)cc6C5)nc(OC[C@@]56CCCN5C[C@H](F)C6)nc4c3F)c12 [Compound 502]
0.1 to 1 µM

Please supply the value of reported IC50 for the item CN1C[C@H](N(C)c2nc(OC[C@@]34CCCN3C[C@H](F)C4)nc3c(F)c(-c4ccc(F)c5sc(N)c(C#N)c45)c(C(F)(F)F)cc23)CCC1=O [Compound 441]
0.1 to 1 µM

Please supply the value of reported IC50 for the item N#Cc1c(N)sc2c(F)ccc(-c3c(C(F)(F)F)cc4c(N5CC6CC(C5)O6)nc(OC[C@@]56CCCN5C[C@]5(CC5(F)F)C6)nc4c3F)c12 [Compound 365]
0.1 to 1 µM

Please supply the value of reported IC50 for the item N#Cc1c(N)sc2c(F)ccc(-c3c(C(F)(F)F)cc4c(N5CCn6nc(N7CCOCC7)cc6C5)nc(OC[C@@]56CCCN5C[C@H](F)C6)nc4c3F)c12 [Compound 485]
1 to 10 µM

---

- SUBJECT_OF_TEST: Avi-KRAS G12D (1-169) GppNHp/RAF1 RBD-3xFLAG (52-151) (Homo sapiens, UniProt P01116, G12D)
- Construct: Avi-KRAS G12D (1-169)
- Sequence (P01116 1-169 isoform P01116-2 G12D): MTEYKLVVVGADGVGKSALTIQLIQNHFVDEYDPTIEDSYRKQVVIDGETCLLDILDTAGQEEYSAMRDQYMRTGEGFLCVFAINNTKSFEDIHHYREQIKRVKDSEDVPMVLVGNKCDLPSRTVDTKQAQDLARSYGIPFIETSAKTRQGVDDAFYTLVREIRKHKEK
- PROCEDURE_SUMMARY: Raf1-KRAS G12D-GppNHP disruption HTRF assay (Biological Example 1)
- Assay type: binding
- EXPERIMENTAL_CONTEXT: KRAS G12D, GppNHp-loaded; class symbols
PARAMETER: IC50

Please supply the value of reported IC50 for the item N#Cc1c(N)sc2c(F)ccc(-c3c(C(F)(F)F)cc4c(N(C5CC5)[C@H]5CCN(C(=O)N6CC(F)C6)C5)nc(OC[C@@]56CCCN5C[C@H](F)C6)nc4c3F)c12 (atropisomer, axis not shown)
< 100 nM

Please supply the value of reported IC50 for the item CCN(c1nc(OC[C@@]23CCCN2C[C@H](F)C3)nc2c(F)c(-c3ccc(F)c4sc(N)c(C#N)c34)c(C(F)(F)F)cc12)[C@H]1CCN(C(=O)C=C(C)C)C1 (atropisomer, axis not shown)
< 100 nM

Please supply the value of reported IC50 for the item CCN(C)C(=O)N1CC[C@H](N(CC)c2nc(OC[C@@]34CCCN3C[C@H](F)C4)nc3c(F)c(-c4ccc(F)c5sc(N)c(C#N)c45)c(C(F)(F)F)cc23)C1 (atropisomer, axis not shown)
< 100 nM

Please supply the value of reported IC50 for the item CO[C@@H](C)C(=O)N1CC[C@H](N(c2nc(OC[C@@]34CCCN3C[C@H](F)C4)nc3c(F)c(-c4ccc(F)c5sc(N)c(C#N)c45)c(C(F)(F)F)cc23)C2CC2)C1 (atropisomer, axis not shown)
< 100 nM

---

- Test system: SW620 cells (KRAS G12V)
- PROCEDURE_SUMMARY: Cell-based pERK HTRF assay in SW620 cell (Biological Example 4)
- EXPERIMENTAL_CONTEXT: Homo sapiens, SW-620, SW620 (KRAS G12V) cells, pERK HTRF
pIC50: −log10 of the molar value.
PARAMETER: pIC50

Please supply the value of reported pIC50 for the item C[C@@H]1[C@H](N(C)c2nc(OC[C@@]34CCCN3C[C@H](F)C4)nc3c(F)c(-c4ccc(F)c5sc(N)c(C#N)c45)c(C(F)(F)F)cc23)CCN1C(=O)C(C)(F)F [Compound 459]
> 7.00

Please supply the value of reported pIC50 for the item CN(C)C(=O)c1cc2n(n1)CCN(c1nc(OC[C@@]34CCCN3C[C@H](F)C4)nc3c(F)c(-c4ccc(F)c5sc(N)c(C#N)c45)c(C(F)(F)F)cc13)C2 [Compound 355]
> 7.00

Please supply the value of reported pIC50 for the item CCC(=O)N1CC[C@@H](N(C)c2nc(OC[C@@]34CCCN3C[C@H](F)C4)nc3c(F)c(-c4ccc(F)c5sc(N)c(C#N)c45)c(C(F)(F)F)cc23)[C@H]1C [Compound 260]
> 7.00

Please supply the value of reported pIC50 for the item C[C@]1(CO)CCN1c1nc(OC[C@@]23CCCN2C[C@H](F)C3)nc2c(F)c(-c3ccc(F)c4sc(N)c(C#N)c34)c(C(F)(F)F)cc12 [Compound 429]
> 7.00

Please supply the value of reported pIC50 for the item CCN(c1nc(OC[C@@]23CCCN2C[C@H](F)C3)nc2c(F)c(-c3ccc(F)c4sc(N)c(C#N)c34)c(C(F)(F)F)cc12)[C@H]1CCN(C(=O)C2CC(F)(F)C2)C1 (atropisomer, axis not shown) [Compound 550]
> 7.00

Please supply the value of reported pIC50 for the item CC(=O)N1CC[C@](C)(N(C)c2nc(OC[C@@]34CCCN3C[C@H](F)C4)nc3c(F)c(-c4ccc(F)c5sc(N)c(C#N)c45)c(C(F)(F)F)cc23)C1 [Compound 505]
6.00 to 7.00

---

Please provide measured pIC50 for the entries that follow.
- SUBJECT_OF_TEST: Avi-KRAS WT (2-169) GTP/RAF1 RBD-3xFLAG (51-131) (Homo sapiens)
- Construct: Avi-KRAS WT (2-169)
- PROCEDURE_SUMMARY: Raf1-KRAS WT-GTP disruption HTRF assay (Biological Example 3)
- Type: binding
- EXPERIMENTAL_CONTEXT: KRAS WT, GTP-loaded
- Procedure: Biological Example 3: Disrupting RAS-Effector Binding HTRF Assay A protein:protein interaction (PPI) Homogeneous Time Resolved Fluorescence (HTRF) assay was used to determine the effectiveness of compounds in disrupting KRAS protein and effector (RAF1) binding. […] Plates were analyzed on an Envision plate reader using the following setting: Excitation 320 nm, Bandwidth 75 nm; Emission 615 nm, Bandwidth 85 nm; Gain 100%; Flashes 100; Lag 60 μs. […] Data was plotted and analyzed using Prism 8. […]
pIC50: −log10 of the molar value.

Please supply the value of reported pIC50 for the item CCN(c1nc(OC[C@@]23CCCN2C[C@H](F)C3)nc2c(F)c(-c3ccc(F)c4sc(N)c(C#N)c34)c(C(F)(F)F)cc12)[C@H]1CCN(C(=O)C2C[C@@H]2F)C1 (some centres unmarked)
≥ 7.00

Please supply the value of reported pIC50 for the item CN(Cc1ncoc1C#N)c1nc(OC[C@@]23CCCN2C[C@H](F)C3)nc2c(F)c(-c3ccc(F)c4sc(N)c(C#N)c34)c(C(F)(F)F)cc12 (atropisomer, axis not shown)
5.00 to 6.00

Please supply the value of reported pIC50 for the item N#Cc1c(N)sc2c(F)ccc(-c3c(C(F)(F)F)cc4c(N5C[C@H]6C[C@@H]5CO6)nc(OC[C@@]56CCCN5C[C@H](F)C6)nc4c3F)c12 [Compound 253]
6.00 to 7.00

Please supply the value of reported pIC50 for the item CCN(c1nc(OC[C@@]23CCCN2C[C@H](F)C3)nc2c(F)c(-c3ccc(F)c4sc(N)c(C#N)c34)c(C(F)(F)F)cc12)[C@H]1C[C@H](C)N(C(=O)OC2COC2)C1 (atropisomer, axis not shown)
6.00 to 7.00

Please supply the value of reported pIC50 for the item [2H][C@]1(N(CC)c2nc(OC[C@@]34CCCN3C[C@H](F)C4)nc3c(F)c(-c4ccc(F)c5sc(N)c(C#N)c45)c(C(F)(F)F)cc23)CCN(C(=O)N(C)C)C1 (atropisomer, axis not shown)
6.00 to 7.00
